From: patent US10138271B2

Measurement Target: HLA-A2 molecules (Homo sapiens, UniProt P04439, D140Y/D185E/D98H/E176V/E277Q/G131W/G231S/I119V/I121R/I166T/I218V/L300P/L318F/N151K/N90K/P208A/P217A/Q86G/Q94H/R138H/R169H/T345S)
Construct: endogenous in cells; host or cells: T2 / T2A2 cells (174CEM-T2, transport deletion mutant)
Experimental Details: Stability of peptide/HLA-A2 complexes (percentage of remaining complexes over time)
Assay type: binding
Condition Info: time points 0, 2, 4, 6, 8, 10 h
Endpoint: Stability of peptide/HLA-A2 complexes, analog versus native peptide

In [3]: df
Out[3]:
               seq_string  observed_measurement
0   YLSYTNPAV [P1240(1Y)]        No differences
1  YLAIVYLIAL [P1172(1Y)]        No differences
